# Tested on: NCI-H2405
# measurement-protocol: relative viability (nuclei count vs DMSO), 5 days (fraction); higher = more cells survive
# stated-conditions: first compound 2.53 µM
quantity-name: relative viability
Response field accepts a number only; no unit should be typed.

[[record]]
compound = "Cc1cnc(-c2cnc(NCCNc3ccc(C#N)cn3)nc2-c2ccc(Cl)cc2Cl)[nH]1 + Cc1cc(Nc2cc(N3CCN(C)CC3)nc(Sc3ccc(NC(=O)C4CC4)cc3)n2)n[nH]1 [Tozasertib] (partner 0.1 µM)"
quantity_name = "relative viability"
result_number = 0.505


[ask] Supply measured relative viability of Cc1cnc(-c2cnc(NCCNc3ccc(C#N)cn3)nc2-c2ccc(Cl)cc2Cl)[nH]1 + O=C(CCCCCCC(=O)Nc1ccccc1)NO [Vorinostat] (partner 1 µM) in your reply.
[reply] 0.661

[ask] Supply measured relative viability of O=c1[nH]c2ccccc2n1C1CCN(CCCC(c2ccc(F)cc2)c2ccc(F)cc2)CC1 [Pimozide] + CC(C)C[C@H](NC(=O)[C@H](Cc1ccccc1)NC(=O)c1cnccn1)B(O)O [Bortezomib] (partner 0.002 µM) in your reply.
[reply] 0.896

[ask] Supply measured relative viability of Cc1cnc(-c2cnc(NCCNc3ccc(C#N)cn3)nc2-c2ccc(Cl)cc2Cl)[nH]1 + CC1(C)CCC(c2ccc(Cl)cc2)=C(CN2CCN(c3ccc(C(=O)NS(=O)(=O)c4ccc(N[C@H](CCN5CCOCC5)CSc5ccccc5)c(S(=O)(=O)C(F)(F)F)c4)cc3)CC2)C1 [Navitoclax] (partner 0.5 µM) in your reply.
[reply] 0.326

Taken from the supplement of paper PMC10307832.
